- assay-system: human GPR52 (Homo sapiens, UniProt Q9Y2T5)
- Construct: expressed in transfected cells; host or cells: CHO(dhfr-) cells
- Sequence (Q9Y2T5 whole entry): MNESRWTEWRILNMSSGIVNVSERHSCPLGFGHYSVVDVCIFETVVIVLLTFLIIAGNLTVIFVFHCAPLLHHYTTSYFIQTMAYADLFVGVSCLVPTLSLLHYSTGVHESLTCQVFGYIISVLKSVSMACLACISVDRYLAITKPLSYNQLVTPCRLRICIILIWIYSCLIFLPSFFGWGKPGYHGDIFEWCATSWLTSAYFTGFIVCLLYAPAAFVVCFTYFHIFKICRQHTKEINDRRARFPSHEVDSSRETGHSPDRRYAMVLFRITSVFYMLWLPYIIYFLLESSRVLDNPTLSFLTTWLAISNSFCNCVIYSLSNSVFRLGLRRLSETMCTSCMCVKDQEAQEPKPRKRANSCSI
- measurement-notes: Increase of intracellular cAMP concentration in human GPR52-expressing CHO cell (AlphaScreen cAMP assay)
- Type: cell-based
- measurement-context: 0.5 h; test compound 10 µm, 37°C, 30 min, human GPR52-expressing CHO(dhfr-) cells; 100% = cAMP with 1 µM N-(2-hydroxyethyl)-3-[2-[3-(trifluoromethyl)benzyl]-1-benzofuran-4-yl]benzamide, 0% = DMSO; read-out: GPR52 agonist activity (%)
Assign class by activation at 10 µM: not lower than 80% means yes; lower than 80% means no.

> print(dat)
                                   molecule                              assay.system  label.value
1  Cc1nc(Cc2cc(F)cc(C(F)(F)F)c2)sc1NC(=O)c1ccnn1C  human GPR52 (Homo sapiens, UniProt Q9Y2T5)          yes
2     Cc1nc(Cc2cccc(Cl)c2)sc1NC(=O)c1ccnn1C  human GPR52 (Homo sapiens, UniProt Q9Y2T5)           no
3  CC(=O)N1CCC(C(=O)Nc2sc(Cc3cccc(C(F)(F)F)c3)nc2C)C1 (stereo not drawn)  human GPR52 (Homo sapiens, UniProt Q9Y2T5)           no
4  CC(=O)Nc1cn(C)c(C(=O)Nc2sc(Cc3cc(F)cc(Cl)c3)nc2C)n1  human GPR52 (Homo sapiens, UniProt Q9Y2T5)          yes
5  Cc1nn(C)cc1C(=O)Nc1sc(Cc2cc(F)cc(Cl)c2)nc1C  human GPR52 (Homo sapiens, UniProt Q9Y2T5)          yes
6  Cc1nc(Cc2cccc(C(F)(F)F)c2)sc1NC(=O)c1c(C)nn(C)c1Cl  human GPR52 (Homo sapiens, UniProt Q9Y2T5)           no
7  Cn1nccc1C(=O)Nc1sc(Cc2cccc(C(F)(F)F)c2)nc1CO  human GPR52 (Homo sapiens, UniProt Q9Y2T5)          yes
8  CCn1nccc1C(=O)Nc1sc(Cc2cc(F)cc(Cl)c2)nc1C  human GPR52 (Homo sapiens, UniProt Q9Y2T5)           no
9  Cc1nc(Cc2cc(F)cc(Cl)c2)sc1NC(=O)c1ccnn1C  human GPR52 (Homo sapiens, UniProt Q9Y2T5)          yes

* * *

- assay-system: human GPR52 (Homo sapiens, UniProt Q9Y2T5)
- Construct: expressed in transfected cells; host or cells: CHO(dhfr-) cells
- measurement-notes: Increase of intracellular cAMP concentration in human GPR52-expressing CHO cell (AlphaScreen cAMP assay)
- Type: cell-based
- measurement-context: 0.5 h; test compound 10 µm, 37°C, 30 min, human GPR52-expressing CHO(dhfr-) cells; 100% = cAMP with 1 µM N-(2-hydroxyethyl)-3-[2-[3-(trifluoromethyl)benzyl]-1-benzofuran-4-yl]benzamide, 0% = DMSO; read-out: GPR52 agonist activity (%)
This section presents compounds with their documented activation at 10 µM values.
readout-kind: activation at 10 µM (%)

> print(dat)
                                   compound  units.symbol  obs.value
1  Cc1nc(Cc2cc(F)cc(Cl)c2)sc1NC(=O)c1c(C)ncn1C [Example 179]             %         80
2  Cc1nc(C(O)c2cccc(C(F)(F)F)c2)sc1NC(=O)c1ccnn1C (centres unmarked) [Example 210]             %         82
3  Cc1nc(Cc2cc(F)cc(Cl)c2)sc1NC(=O)c1ccnn1CC(F)(F)F [Example 163]             %         78
4  Cc1nc(Cc2cc(F)cc(Cl)c2)sc1NC(=O)c1cc(C(N)=O)nn1C [Example 164]             %         80
5  CCCc1nc(Cc2cccc(C(F)(F)F)c2)sc1NC(=O)c1ccnn1C [Example 14]             %         80

* * *

- assay-system: human GPR52 (Homo sapiens, UniProt Q9Y2T5)
- Construct: expressed in transfected cells; host or cells: CHO(dhfr-) cells
- measurement-notes: Increase of intracellular cAMP concentration in human GPR52-expressing CHO cell (AlphaScreen cAMP assay)
- Type: cell-based
- measurement-context: 0.5 h; test compound 10 µm, 37°C, 30 min, human GPR52-expressing CHO(dhfr-) cells; 100% = cAMP with 1 µM N-(2-hydroxyethyl)-3-[2-[3-(trifluoromethyl)benzyl]-1-benzofuran-4-yl]benzamide, 0% = DMSO; read-out: GPR52 agonist activity (%)
Counter-ions that a name gives are not always drawn.
List of activation at 10 µM values.
readout-kind: activation at 10 µM (%)

> print(dat)
                                   compound  obs.value
1  Cc1nc(Cc2cccc(C(F)(F)F)c2)sc1NC(=O)c1c(C)nn(C)c1C [Example 47]         82
2  Cc1nc(Cc2cc(F)cc(F)c2)sc1NC(=O)c1ccnn1C [Example 220]         79
3  COC(=O)[C@@H]1C[C@@H]1C(=O)Nc1sc(Cc2cc(F)cc(Cl)c2)nc1C (relative stereo) [Example 190]         82
4  Cc1nc(Cc2cccc(S(C)(=O)=O)c2)sc1NC(=O)c1ccnn1C [Example 233]         81
5  Cc1nc(Cc2cccc(Br)c2)sc1NC(=O)c1ccnn1C [Example 224]         80
6  Cc1nc(Cc2cc(F)cc(Cl)c2)sc1NC(=O)c1cc(CN2CCOCC2)nn1C [Example 238, monohydrochloride]         80

* * *

- assay-system: human GPR52 (Homo sapiens, UniProt Q9Y2T5)
- Construct: expressed in transfected cells; host or cells: CHO(dhfr-) cells
- measurement-notes: Increase of intracellular cAMP concentration in human GPR52-expressing CHO cell (AlphaScreen cAMP assay)
- Assay type: cell-based
- measurement-context: 0.5 h; test compound 10 µm, 37°C, 30 min, human GPR52-expressing CHO(dhfr-) cells; 100% = cAMP with 1 µM N-(2-hydroxyethyl)-3-[2-[3-(trifluoromethyl)benzyl]-1-benzofuran-4-yl]benzamide, 0% = DMSO; read-out: GPR52 agonist activity (%)
readout-kind: activation at 10 µM (%)

> print(dat)
                                   compound         readout.kind  units.symbol  obs.value
1  Cc1nc(Cc2cccc(C(F)(F)F)c2)sc1NC(=O)C1(C#N)CC1 [Example 39]  activation at 10 µM             %         79
2  COCc1nc(Cc2cccc(C(F)(F)F)c2)sc1NC(=O)c1ccnn1C [Example 8]  activation at 10 µM             %         78
3  Cc1nc(Cc2cc(F)cc(Cl)c2)sc1NC(=O)c1cccn1C [Example 185]  activation at 10 µM             %         81
4  COCCNC(=O)[C@@H]1C[C@H]1C(=O)Nc1sc(Cc2cc(F)cc(Cl)c2)nc1C (relative stereo) [Example 189]  activation at 10 µM             %         78
5  Cc1nc(Cc2cccc(C(F)(F)F)c2)sc1NC(=O)c1ccnn1C [Example 110]  activation at 10 µM             %         82
